Biological target: T1, rhesus CD137Fc recombinant protein (Sino Biologicals cat no. 90847-K02H) (rhesus; human, UniProt H9Z8K9 24-186)
T1 construct: Bought protein; also called rhesus CD137-human IgG1 Fc tagged protein; not shown: human IgG1 Fc tag
T1 sequence: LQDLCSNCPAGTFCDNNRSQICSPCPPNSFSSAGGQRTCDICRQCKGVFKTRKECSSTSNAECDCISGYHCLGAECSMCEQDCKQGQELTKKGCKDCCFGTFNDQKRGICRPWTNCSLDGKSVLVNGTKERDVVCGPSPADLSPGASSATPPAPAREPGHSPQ
Test: HTRF binding assay
Simple rule here: EC50 less than 1 nM is yes, otherwise no.

Take a look at these entries with their results.
INSERT INTO measurements (binder, label_value) VALUES
  ('Humabody VH 2.2 (VHH, human single VH domain) VH: EVQLVESGGGLVKPGGSLRVSCAASGFTFSDYYMSWFRQAPGKGLEWVSYISGSGDIIDYADSVKGRFTISRDNAKNSLYLQMNSLRAEDTAVYHCAKEDSRIPGTTDFDNWGQGTLVTVSSHHHHHH', 'yes'),
  ('Humabody VH 1.11 (VHH, human single VH domain) VH: EVQLVESGGGLVQPGGSLRLSCEASGFTFSDYWMNWARQAPGKGLEWVANIKEDGSEKYYVDSVEGRFTISRDNAKNSTYLQMNSLRAEDTAVYYCARGGAGYSMSHYGMDVWGQGTTVTVSSHHHHHH', 'no'),
  ('Humabody VH 2.14 (VHH, human single VH domain) VH: EVQLVESGGGLVKPGGSLRLSCAASGFTFSDYYMTWFRQAPGKGLEWISYISGSGDTIDYAESVKGRFTISRDNAKNSLYLQMNSLRAEDTAVYYCAREDIRMPGTTDFDHWGQGTLVTVSSHHHHHH', 'no'),
  ('Humabody VH 2.8 (VHH, human single VH domain) VH: EVQLVESGGGLVKPGGSLRLSCAASGFAFSDYYMSWFRQAPGKGLEWVSHISGSGTTIDYADSVKGRFTISRDNAKNSLYLQMNSLRAEDTAVYHCAREDSRMPGTTDFDNWGQGTLVTVSSHHHHHH', 'no'),
  ('Humabody VH 2.9 (VHH, human single VH domain) VH: EVQLVESGGGLVKPGGSLRLSCAASGFTFSDYYMTWFRQAPGKGLEWISYISGSGDTIDYAESVKGRFTISRDNAKNSLYLQMNSLRAEDTAVYHCAREDSRIAGTTDFDNWGPGTLVTVSSHHHHHH', 'no');

In: Is EC50 strictly under 1 nM for the entry Humabody VH 1.52 (VHH, human single VH domain) VH: EVQLVESGGGLVQIGGSLRLSCAASGFTFSKYWMIWVRQAPEKGLEWVANINQDGSEKYYVDSVEGRFTISRDNANNSLFLQMNSLRAEDTAVYYCARGGDDYSISHFGMDVSGQGTRVTVSSHHHHHH ?
Out: yes

In: # strict comparison: is reported EC50 < 1 nM? input = Humabody VH 1.78 (VHH, human single VH domain) VH: QVQLVESGGGLVQPGGSLRLSCAATGFTLSNYWMNWVRQAPGKGLEWVANINQDGSERYYVDSVKGRFTISRDNAKNSLYLQMSSLRAEDTAVYFCARGGEGYGVDHYGLDVSGQGTTVTVSSHHHHHH
Out: yes

In: Item Humabody VH 1.1 (VHH, human single VH domain; also called single domain antibody 1.1) VH: EVQLVESGGGLVQPGGSLRLSCAASGFTFSSHWMTWFRQAPGKGLEWVAHIKEDGSEKYYEDSVEGRFTVSRDNAKNSVYLQMNSLRAEDTAVYYCARGGDGYSDSHFGVDVWGQGTTVTVSSHHHHHH : EC50 beneath 1 nM, strictly?
Out: no

In: Bench note: check whether Humabody VH 1.18 (VHH, human single VH domain) VH: EVQLVESGGGLVQPGGSLRLSCAASGFTFSTHWMNWARQAPGKELEWVANINQDGSEKYYVDSVEGRFTISRDNANNSLYLQMNSLRAEDTAVYYCARGGVGYGDSHFGMDVWGLGTTVTVSSHHHHHH shows EC50 below 1 nM
Out: no
